Biological target: peroxisome proliferator-activated receptor (PPARγ) (Homo sapiens)
Sequence (P37231 238-505 limits assumed): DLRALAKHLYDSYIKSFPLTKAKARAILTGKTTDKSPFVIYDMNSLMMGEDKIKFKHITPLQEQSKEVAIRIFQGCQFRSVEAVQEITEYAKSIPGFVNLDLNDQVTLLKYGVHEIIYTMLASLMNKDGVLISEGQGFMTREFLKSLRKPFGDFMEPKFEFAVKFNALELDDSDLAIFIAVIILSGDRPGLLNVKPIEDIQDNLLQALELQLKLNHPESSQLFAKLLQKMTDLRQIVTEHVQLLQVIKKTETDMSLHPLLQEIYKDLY
Assay: PPARγ-GeneBLAzer-Anta
Details: read-out: ECSR0.5; antagonist mode, 50% suppression
measuredAttribute: IC50 (nM)
Your answer should be a plain number; it is taken to be in nM.

O=C(Nc1ccccc1)c1cc([N+](=O)[O-])ccc1Cl tested on peroxisome proliferator-activated receptor (PPARγ) (Homo sapiens) gave IC50: 8.4

----------
Tested on: Nrf2-MDA-MB cells
Test: cells
Assay type: cell-based, human
Conditions: Homo sapiens
measuredAttribute: EC50

Quick note, EC50 for CC(C)(C)c1cc(O)ccc1O [tBHQ, tert-Butylhydroquinone] landed at 178 µM
